assay: in vivo; conditions: male, Crl:WI(Han), rat, po, 250 mg/kg/day, Cmax
RECORDED METRIC: Cmax (ng/mL)
One number for each entry, in ng/mL.

Name the recorded Cmax of the molecule listed here: C[C@@H]1CN(Cc2ncccn2)C[C@H]1c1cn2c(C3CCOCC3)ncc2c(=O)[nH]1 (single isomer, unassigned)
16500

* * *

experiment: Pharmacokinetics of single oral and IV dose in CD1 mice; format: in vivo; settings: mouse, blood; CD1 mice, 3 mg/kg IV; read-out: Vss obs
RECORDED METRIC: Vd (L/kg)
One number for each entry, in L/kg.

Identify Vd associated with the compound C[C@@H]1CN(Cc2ncccn2)C[C@H]1c1cn2c(C3CCOCC3)ncc2c(=O)[nH]1 (single isomer, unassigned)
0.89

* * *

test: Fourteen-day repeat-dose toxicity study in beagle dogs; type: in vivo, dog; conditions: male, beagle, dog, in vivo, po, 75 mg/kg/day, dog, males, 75 mg, Day 14; read-out: AUC0-24
RECORDED METRIC: AUC(0-t)

Annotate the compound C[C@@H]1CN(Cc2ncccn2)C[C@H]1c1cn2c(C3CCOCC3)ncc2c(=O)[nH]1 (single isomer, unassigned) with its measured AUC(0-t).
193 µg·h/mL

* * *

assay: Fourteen-day repeat-dose toxicity study in beagle dogs; type: in vivo, dog; conditions: male, beagle, dog, in vivo, po, 10 mg, dog, males, 10 mg, Day 14
RECORDED METRIC: Cmax (ng/mL)
Answers are plain numbers, in ng/mL.

Specify reported Cmax for the compound shown: C[C@@H]1CN(Cc2ncccn2)C[C@H]1c1cn2c(C3CCOCC3)ncc2c(=O)[nH]1 (single isomer, unassigned)
3120

* * *

assay: Pharmacokinetics of single oral and IV dose in CD1 mice; format: in vivo; conditions: mouse, blood; CD1 mice, 3 mg/kg IV
RECORDED METRIC: AUC(0-t) (ng·h/mL)
One number for each entry, in ng·h/mL.

Indicate its recorded AUC(0-t); the molecule in question is C[C@@H]1CN(Cc2ncccn2)C[C@H]1c1cn2c(C3CCOCC3)ncc2c(=O)[nH]1 (single isomer, unassigned)
1630

* * *

test: Fourteen-day repeat-dose toxicity study in beagle dogs; format: in vivo, dog; conditions: both sexes, beagle, in vivo, oral; dog, males and females, 14-day; read-out: no-observed-adverse-effect level (NOAEL)
RECORDED METRIC: NOAEL at 14 days (mg/kg/day)
Numbers only, in mg/kg/day.

Give recorded NOAEL at 14 days. C[C@@H]1CN(Cc2ncccn2)C[C@H]1c1cn2c(C3CCOCC3)ncc2c(=O)[nH]1 (single isomer, unassigned)
35

* * *

test: Pharmacokinetics of single oral and IV dose in Sprague Dawley rats; type: in vivo; settings: Sprague Dawley, rat, plasma, po, 10 mg/kg; read-out: oral bioavailability Flast
RECORDED METRIC: bioavailability (%)
One number for each entry, in %.

State, in one line, measured bioavailability of C[C@@H]1CN(Cc2ncccn2)C[C@H]1c1cn2c(C3CCOCC3)ncc2c(=O)[nH]1 (single isomer, unassigned) [Compound P3.1]
63.4

* * *

assay: Plasma, brain and eye exposure in C57Bl/6J mice; assay type: in vivo; settings: male, C57Bl/6J, mouse, plasma, oral; 30 mg/kg/day, gavage, Day 5, 30 minutes after dosing
RECORDED METRIC: concentration at 30 min (µM)
Answers are plain numbers, in µM.

Kindly indicate its recorded concentration at 30 min. Item: C[C@@H]1CN(Cc2ncccn2)C[C@H]1c1cn2c(C3CCOCC3)ncc2c(=O)[nH]1 (single isomer, unassigned)
9.91

* * *

Assay: Fourteen-day repeat-dose toxicity study in beagle dogs
Assay type: in vivo, dog
Details: male, beagle, dog, in vivo, po, 35 mg, dog, males, 35 mg, Day 14; read-out: AUC0-24
Procedure: In a GLP 14-day repeat-dose toxicity study in dogs, Compound P3.1 was orally administered at doses of 0, 10, 35, or 75 mg/kg/day. […] The no-observed-adverse-effect level (NOAEL) was considered to be 35 mg/kg/day in males and females.
RECORDED METRIC: AUC(0-t) (ng·h/mL)
One number for each entry, in ng·h/mL.

Read the entry C[C@@H]1CN(Cc2ncccn2)C[C@H]1c1cn2c(C3CCOCC3)ncc2c(=O)[nH]1 (single isomer, unassigned) and write its reported AUC(0-t).
98600

* * *

experiment: Fourteen-day repeat-dose toxicity study in beagle dogs; type: in vivo, dog; conditions: male, beagle, dog, in vivo, po, 35 mg, dog, males, 35 mg, Day 1; read-out: AUC0-24
RECORDED METRIC: AUC(0-t)

Complete the entry with AUC(0-t) for C[C@@H]1CN(Cc2ncccn2)C[C@H]1c1cn2c(C3CCOCC3)ncc2c(=O)[nH]1 (single isomer, unassigned)
114 µg·h/mL

* * *

test: Fourteen-day repeat-dose toxicity study in beagle dogs; assay type: in vivo, dog; settings: female, beagle, dog, in vivo, po, 35 mg, dog, females, 35 mg, Day 14; read-out: AUC0-24
RECORDED METRIC: AUC(0-t) (ng·h/mL)
Give bare numbers, in ng·h/mL.

Please supply the value of reported AUC(0-t) for the item C[C@@H]1CN(Cc2ncccn2)C[C@H]1c1cn2c(C3CCOCC3)ncc2c(=O)[nH]1 (single isomer, unassigned) [Compound P3.1]
87900

* * *

Assay: Pharmacokinetics of single oral and IV dose in Sprague Dawley rats
Assay type: in vivo
Conditions: rat, blood; Sprague Dawley rats, 10 mg/kg oral
Experimental: Blood samples were taken at 2 minutes (IV only), then 8, 15, 30 minutes, and 1, 2, 4, 8, and 24 hours after dosing and analyzed for key PK parameters. In the rats, brain samples were taken at 24 hours and analyzed for Compound P3.1. […]
RECORDED METRIC: C0 (ng/mL)
Numbers only, in ng/mL.

Provide one value: measured C0 of C[C@@H]1CN(Cc2ncccn2)C[C@H]1c1cn2c(C3CCOCC3)ncc2c(=O)[nH]1 (single isomer, unassigned)
1110

* * *

test: Fourteen-day repeat-dose toxicity study in beagle dogs; format: in vivo, dog; conditions: female, beagle, dog, in vivo, po, 10 mg, dog, females, 10 mg, Day 14; read-out: AUC0-24
RECORDED METRIC: AUC(0-t) (ng·h/mL)
Give bare numbers, in ng·h/mL.

Kindly indicate its recorded AUC(0-t). Item: C[C@@H]1CN(Cc2ncccn2)C[C@H]1c1cn2c(C3CCOCC3)ncc2c(=O)[nH]1 (single isomer, unassigned) [Compound P3.1]
25400

* * *

experiment: Pharmacokinetics of single oral and IV dose in Sprague Dawley rats; assay type: in vivo; details: rat, blood; Sprague Dawley rats, 10 mg/kg oral
RECORDED METRIC: half-life (h)
Numbers only, in h.

Return reported half-life. Input molecule: C[C@@H]1CN(Cc2ncccn2)C[C@H]1c1cn2c(C3CCOCC3)ncc2c(=O)[nH]1 (single isomer, unassigned)
3.01

* * *

target: MDR1 (P-gp) (Homo sapiens, UniProt P08183); construct: expressed in transfected cells; host or cells: MDCK-MDR1 cells; assay: Bi-directional permeability across MDCK-MDR1 cell monolayer; assay type: in vitro ADME; settings: human
Sequence (P08183 whole entry): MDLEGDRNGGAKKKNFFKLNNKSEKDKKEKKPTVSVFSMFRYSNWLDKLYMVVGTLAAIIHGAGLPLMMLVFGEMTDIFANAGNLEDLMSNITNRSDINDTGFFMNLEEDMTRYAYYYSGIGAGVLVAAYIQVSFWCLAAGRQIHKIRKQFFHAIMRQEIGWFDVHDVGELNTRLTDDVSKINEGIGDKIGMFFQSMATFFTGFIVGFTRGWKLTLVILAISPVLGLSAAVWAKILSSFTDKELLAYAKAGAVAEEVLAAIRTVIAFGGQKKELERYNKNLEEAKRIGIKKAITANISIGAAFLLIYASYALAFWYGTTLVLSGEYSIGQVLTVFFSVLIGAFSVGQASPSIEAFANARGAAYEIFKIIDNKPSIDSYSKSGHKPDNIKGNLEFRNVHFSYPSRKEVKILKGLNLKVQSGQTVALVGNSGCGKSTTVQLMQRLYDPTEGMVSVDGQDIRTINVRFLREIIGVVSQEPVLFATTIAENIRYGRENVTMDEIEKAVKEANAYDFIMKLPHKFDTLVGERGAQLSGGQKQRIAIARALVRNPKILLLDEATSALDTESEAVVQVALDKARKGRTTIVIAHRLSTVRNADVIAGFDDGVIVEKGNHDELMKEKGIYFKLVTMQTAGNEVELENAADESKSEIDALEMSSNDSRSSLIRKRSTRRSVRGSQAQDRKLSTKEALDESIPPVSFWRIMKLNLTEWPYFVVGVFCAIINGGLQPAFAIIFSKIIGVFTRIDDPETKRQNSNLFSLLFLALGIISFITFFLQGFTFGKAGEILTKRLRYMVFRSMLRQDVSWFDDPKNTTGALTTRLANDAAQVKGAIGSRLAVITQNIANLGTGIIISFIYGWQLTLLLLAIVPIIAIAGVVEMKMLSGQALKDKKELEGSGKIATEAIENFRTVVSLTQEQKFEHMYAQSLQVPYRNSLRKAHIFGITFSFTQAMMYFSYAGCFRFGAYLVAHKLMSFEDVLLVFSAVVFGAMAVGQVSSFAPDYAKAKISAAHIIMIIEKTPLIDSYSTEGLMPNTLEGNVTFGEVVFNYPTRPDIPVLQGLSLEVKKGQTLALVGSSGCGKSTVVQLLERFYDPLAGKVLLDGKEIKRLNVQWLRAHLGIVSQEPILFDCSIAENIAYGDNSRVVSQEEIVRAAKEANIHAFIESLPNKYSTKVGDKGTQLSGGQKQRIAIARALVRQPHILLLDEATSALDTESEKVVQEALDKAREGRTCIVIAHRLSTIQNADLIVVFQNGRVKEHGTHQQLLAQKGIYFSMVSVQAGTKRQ
RECORDED METRIC: efflux ratio
One number for each entry.

Supply measured efflux ratio of C[C@@H]1CN(Cc2ncccn2)C[C@H]1c1cn2c(C3CCOCC3)ncc2c(=O)[nH]1 (single isomer, unassigned) [Compound P3.1] in your reply.
180

* * *

test: Plasma protein binding, dog; assay type: in vitro ADME; conditions: read-out: mean plasma fraction bound (converted)
RECORDED METRIC: fraction unbound
Numbers only.

Give reported fraction unbound value for C[C@@H]1CN(Cc2ncccn2)C[C@H]1c1cn2c(C3CCOCC3)ncc2c(=O)[nH]1 (single isomer, unassigned)
0.771

* * *

test: Pharmacokinetics of single oral and IV dose in Sprague Dawley rats; assay type: in vivo; conditions: rat, blood; Sprague Dawley rats, 3 mg/kg IV
RECORDED METRIC: half-life
Please don't drop the unit; write it after the number.

Identify measured half-life associated with C[C@@H]1CN(Cc2ncccn2)C[C@H]1c1cn2c(C3CCOCC3)ncc2c(=O)[nH]1 (single isomer, unassigned)
2.81 h

* * *

experiment: Pharmacokinetics of single oral and IV dose in CD1 mice; assay type: in vivo; conditions: mouse, blood; CD1 mice, 3 mg/kg IV
RECORDED METRIC: MRT (min)
Numbers only, in min.

Dear colleague, please send me the reported MRT for C[C@@H]1CN(Cc2ncccn2)C[C@H]1c1cn2c(C3CCOCC3)ncc2c(=O)[nH]1 (single isomer, unassigned) when you can.
26.4

* * *

assay: Fourteen-day repeat-dose toxicity study in beagle dogs; assay type: in vivo, dog; details: male, beagle, dog, in vivo, po, 10 mg, dog, males, 10 mg, Day 1
RECORDED METRIC: Cmax

Entry C[C@@H]1CN(Cc2ncccn2)C[C@H]1c1cn2c(C3CCOCC3)ncc2c(=O)[nH]1 (single isomer, unassigned) [Compound P3.1] needs its Cmax filled in; supply it.
2.73 µg/mL
